The measurements presented in this section are drawn from patent EP2740727B1.

tested on: Albino Swiss mice; experiment: Acute toxicity determination (LD50); conditions: Therapeutic index = LD50/ED50
endpointName: TI
Lab note: jot the number down without any unit.

1. CCC(=O)NNC(=O)CSc1nc2cc(OC)c(OC)cc2c(=O)n1Cc1ccccc1 [Compound 110]	5.1
2. COc1cc2nc(SCC(=O)NN)n(Cc3ccccc3)c(=O)c2cc1OC [Compound 70]	11.25
3. CCC(=O)NNC(=O)CSc1nc2ccc(Cl)cc2c(=O)n1-c1ccccc1 [Compound 89]	24.6
4. O=C(CCc1ccccc1)NNC(=O)CSc1nc2ccc(Cl)cc2c(=O)n1Cc1ccccc1 [Compound 115]	9.8

# next compound below
Ask: Give the measured TI of CC(=O)NNC(=O)CSc1nc2ccc(Cl)cc2c(=O)n1Cc1ccccc1 [Compound 105] .
Result: 9.7
